System: Escherichia coli TOP10;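 further: peptides expressed intracellularly from a pBAD plasmid library in pooled LB shake-flask culture, induced with 0.3% L-arabinose, DNA abundance read by NGS, three biological replicates, DESeq2 with apeglm shrinkage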
Assay: shrunken log2 fold change of peptide-encoding DNA abundance (4.5 h post-induction vs induction); higher = less antimicrobial activity (less host growth inhibition)
Details: time post-induction: 4.5 h; library: site-saturation at positions 5, 18, 19, 20
We use 0.04 as the dividing line for shrunken log2 fold change: on or above the line is satisfied, below is not satisfied.

| sequenceContent | assignedLabel |
| --- | --- |
| RRIRRRPPRLPRPRPRPHTSPRP | not satisfied |
| RRIRQRPPRLPRPRPRPWSHPRP | not satisfied |
| RRIRFRPPRLPRPRPRPDTAPRP | not satisfied |
| RRIRLRPPRLPRPRPRPAQLPRP | satisfied |
| RRIRVRPPRLPRPRPRPVTLPRP | not satisfied |
| RRIRSRPPRLPRPRPRPALNPRP | satisfied |
| RRIRTRPPRLPRPRPRPMGEPRP | not satisfied |
| RRIRCRPPRLPRPRPRPIWCPRP | not satisfied |
| RRIRQRPPRLPRPRPRPGVHPRP | not satisfied |
| RRIRLRPPRLPRPRPRPLAKPRP | satisfied |
| RRIRVRPPRLPRPRPRPSDWPRP | not satisfied |
| RRIRDRPPRLPRPRPRPCKNPRP | satisfied |
| RRIRKRPPRLPRPRPRPQVFPRP | not satisfied |
| RRIRPRPPRLPRPRPRPRNEPRP | satisfied |
